The values you see were collected from ChEMBL document CHEMBL1147795.

Assay: Bioavailability in Beagle dog
Format: ADME, organism-based, Canis lupus familiaris
Conditions: in vivo
OBSERVED_PROPERTY: bioavailability (%)
Please give a number only; it is taken to be in %.

Need bioavailability, item `N#C[C@@H]1CC[C@H](C#N)N1C(=O)CNC1(CO)CCCC1` 93

---

Would you mind telling me the reported half-life of each entry?
Assay: Half life in Sprague-Dawley rat at 1 mg/kg, iv
Assay type: ADME, organism-based
Set-up: dose 1 mg/kg, route intravenous
Settings: in vivo
Include the unit after the number when you answer.

Need half-life, item `COCC1(NCC(=O)N2[C@H](C#N)CC[C@@H]2C#N)CCCC1` 12 min

Need half-life, item `N#C[C@@H]1CC[C@H](C#N)N1C(=O)CNC1(CO)CCCC1` 18 min

Need half-life, item `N#C[C@@H]1CC[C@H](C#N)N1C(=O)CNC12CC3CC(CC(C3)C1)C2` 36 min

Need half-life, item `N#C[C@@H]1CC[C@H](C#N)N1C(=O)CNC12CC3CC(CC(O)(C3)C1)C2` 24 min

---

Experiment: Percent of unbound ligand in human plasma
Type: ADME
OBSERVED_PROPERTY: fraction unbound

Need fraction unbound, item `N#C[C@@H]1CC[C@H](C#N)N1C(=O)CNC1(CO)CCCC1` 0.77

---

Assay: Solubility in phosphate buffered saline at pH 6.5
Type: physicochemical
OBSERVED_PROPERTY: solubility

Need solubility, item `Cl.N#C[C@@H]1CC[C@H](C#N)N1C(=O)CNC1(CO)CCCC1` > 76 mg/mL

---

Test: Volume of distribution in Beagle dog
Type: ADME, organism-based, Canis lupus familiaris
Conditions: in vivo, read-out: Vdss
OBSERVED_PROPERTY: Vd
Include the unit after the number when you answer.

Need Vd, item `N#C[C@@H]1CC[C@H](C#N)N1C(=O)CNC1(CO)CCCC1` 1.3 L/kg

---

Experiment: Tmax in Sprague-Dawley rat
Format: ADME, organism-based
Details: in vivo
OBSERVED_PROPERTY: Tmax

Need Tmax, item `N#C[C@@H]1CC[C@H](C#N)N1C(=O)CNC1(CO)CCCC1` ≤ 1 h

---

Would you mind telling me the reported CL of each entry?
Organism: Rattus norvegicus
Test: Hepatic clearance in Sprague-Dawley rat
Assay type: ADME, organism-based, Liver
Conditions: in vivo
Please give a number only; it is taken to be in mL/min/kg.

Need CL, item `N#C[C@@H]1CC[C@H](C#N)N1C(=O)CNC1(CO)CCCC1` 70

Need CL, item `COCC1(NCC(=O)N2[C@H](C#N)CC[C@@H]2C#N)CCCC1` 98

Need CL, item `N#C[C@@H]1CC[C@H](C#N)N1C(=O)CNC12CC3CC(CC(O)(C3)C1)C2` 130

Need CL, item `N#C[C@@H]1CC[C@H](C#N)N1C(=O)CNC12CC3CC(CC(C3)C1)C2` 80

---

Assay: Solubility in unbuffered water
Type: physicochemical
OBSERVED_PROPERTY: solubility (mg/mL)
Please give a number only; it is taken to be in mg/mL.

Need solubility, item `Cl.N#C[C@@H]1CC[C@H](C#N)N1C(=O)CNC1(CO)CCCC1` 200

---

Would you mind telling me the reported half-life of each entry?
Test: Half life in Sprague-Dawley rat at 5 mg/kg, po
Assay type: ADME, organism-based
Parameters: dose 5 mg/kg, route oral
Details: in vivo
Please give a number only; it is taken to be in h.

Need half-life, item `N#C[C@@H]1CC[C@H](C#N)N1C(=O)CNC1(CO)CCCC1` 2.7

Need half-life, item `COCC1(NCC(=O)N2[C@H](C#N)CC[C@@H]2C#N)CCCC1` 0.64

Need half-life, item `N#C[C@@H]1CC[C@H](C#N)N1C(=O)CNC12CC3CC(CC(O)(C3)C1)C2` 1.4
